system: IICR (IP3 induced calcium release) in CHO cells; assay: Assay of IICR (IP3 induced calcium release)-inhibiting action; assay type: cell-based, Chinese hamster; settings: Cricetulus griseus, CHO, test compound 10 μmol; CHO cells, 10 μM ATP; read-out: IICR level (percentage of inhibition)
Kindly supply the reported inhibition at 10 µM values for the records listed here.
Numbers only, in %.

Answered examples (8):
{"compound": "CC(C)N(CCC(=O)c1ccc[nH]1)Cc1ccccc1 [Example 110]", "unit.descriptor": "%", "inhibition at 10 µM": 20}
{"compound": "CCCCN(CCO)CCC(=O)c1ccc2c(Cl)cccc2c1 [Example 91]", "unit.descriptor": "%", "inhibition at 10 µM": 20}
{"compound": "CN(CCC(=O)c1ccccn1)Cc1ccccc1 [Example 77]", "unit.descriptor": "%", "inhibition at 10 µM": 0}
{"compound": "Cc1nc(C)c(C(=O)CCN(Cc2ccccc2)C(C)C)s1 [Example 219]", "unit.descriptor": "%", "inhibition at 10 µM": 20}
{"compound": "Cc1ccc(C(=O)CCN(CCO)C(C)(C)C)o1 [Example 240]", "unit.descriptor": "%", "inhibition at 10 µM": 10}
{"compound": "Cc1csc(C(=O)CCN(CCO)Cc2ccccc2)c1 [Example 323]", "unit.descriptor": "%", "inhibition at 10 µM": 30}
{"compound": "CN(CCC(=O)c1ccc(Cc2ccccc2)cc1)Cc1ccccc1 [Example 104]", "unit.descriptor": "%", "inhibition at 10 µM": 40}
{"compound": "Cc1ccc(C(=O)CCN(Cc2ccccc2)C(C)C)o1 [Example 136]", "unit.descriptor": "%", "inhibition at 10 µM": 50}

Look at each compound and report its inhibition at 10 µM.
1. O=C(CCNC(c1ccccc1)C(O)c1ccccc1)c1ccco1 (stereo not drawn) [Example 272]
2. CCN(CCO)CCC(=O)c1cc(C)sc1C [Example 228]
3. CC(CN(CCO)C(C)(C)C)C(=O)c1ccc(F)cc1 (stereo not drawn) [Example 161]

Ans:
40
20
0

Look at each compound and report its inhibition at 10 µM.
1. CC(C)N(CCC(=O)c1ccc(Br)s1)Cc1ccccc1 [Example 292]
2. CC(C)(C)N(CCC(=O)c1ccccn1)Cc1ccccc1 [Example 94]
3. CCN(CC)CCC(=O)c1ccc(Oc2ccccc2)cc1 [Example 116]

Ans:
50
30
20

Q: Fill in the blank: the reported inhibition at 10 µM of Cc1cccc2cc(C(=O)CCN(Cc3ccccc3)C(C)C)ccc12 [Example 79] is ____.
Ans: 70

----------
system: IICR (IP3 induced calcium release) in CHO cells; assay: Assay of IICR (IP3 induced calcium release)-inhibiting action; type: cell-based, Chinese hamster; conditions: Cricetulus griseus, CHO, test compound 10 μmol; CHO cells, 10 μM ATP; read-out: IICR level (percentage of inhibition)
property.measured: inhibition at 10 µM (%)
Give bare numbers, in %.

Answered examples (4):
{"compound": "CCC(C)N(CCC(=O)c1sccc1Br)C(C)CC (stereo not drawn)", "test.target": "IICR (IP3 induced calcium release) in CHO cells", "property.measured": "inhibition at 10 µM", "unit.descriptor": "%", "val": 48}
{"compound": "CC(CN(CCO)C(C)C)C(=O)c1ccccc1F (stereo not drawn)", "test.target": "IICR (IP3 induced calcium release) in CHO cells", "property.measured": "inhibition at 10 µM", "unit.descriptor": "%", "val": 0}
{"compound": "CN1CCN(CCC(=O)c2ccc(Br)s2)CC1", "test.target": "IICR (IP3 induced calcium release) in CHO cells", "property.measured": "inhibition at 10 µM", "unit.descriptor": "%", "val": 0}
{"compound": "O=C(CCN(CCO)CCO)c1cccs1", "test.target": "IICR (IP3 induced calcium release) in CHO cells", "property.measured": "inhibition at 10 µM", "unit.descriptor": "%", "val": 20}

Look at each compound and report its inhibition at 10 µM.
1. O=C(CCN(CCO)c1ccccc1)c1ccc(Br)s1
2. O=C(CCN(c1ccccc1)c1ccccc1)c1cccc2ccccc12

Ans:
1: 0; 2: 10
